The origin of these recorded values is paper PMC12030534.

# EXPERIMENT: Population PK model of total and unbound pamiparib plasma concentrations in glioblastoma patients (Monolix; bootstrap evaluation)
# Format: in vivo, human
# TEST_PARAMETERS: human, plasma, oral, 60 mg, total pamiparib; bootstrap mean; read-out: θ4 (Fu)

# SMILES, fraction unbound
rows = [
    ("C[C@]12CCCN1CC1=NNC(=O)c3cc(F)cc4[nH]c2c1c34", 0.041),
]

* * *

# EXPERIMENT: Population PK model of total and unbound pamiparib plasma concentrations in glioblastoma patients (Monolix; bootstrap evaluation)
# Format: in vivo, human
# TEST_PARAMETERS: human, plasma, oral, 60 mg, unbound pamiparib; base model; population mean (% RSE); read-out: θ4 (Fu)
# Description: The total and unbound pamiparib plasma concentration data used in the population PK analysis were obtained from a phase 0/II study (ClinicalTrials.gov ID: NCT04614909), which enrolled 41 patients with newly diagnosed or recurrent glioblastoma. The protocols were approved by the Institutional Review Board of the Barrow Neurological Institute. […] Various residual error models, including constant, proportional, and combined error models, were evaluated. […]
PROPERTY: fraction unbound

# COMPOUND, READOUT_VALUE
data = [
    ("C[C@]12CCCN1CC1=NNC(=O)c3cc(F)cc4[nH]c2c1c34 [pamiparib]", 0.042),
]
